System: U20S-IC6 cells
run description: Lo-Q platform assay (CAG repeat expansion in a clonal cell line with tetracycline-regulated exon 1 HTT ~100 CAG / nanoluc)
Format: cell-based
experimental context: 336 h, 2-week assay with tetracycline pulsing, read-out: Minimum effective concentration (MEC)
readout type: minimal effective concentration

**Q:** Param readout = minimal effective concentration; param system = U20S-IC6 cells; param query = "CNS(=O)(=O)OCC(=O)Nc1nc(C)c(Cc2ccc(Cl)c(Cl)c2)s1" ; response: value
**A:** 0.5 to 1 µM

**Q:** Param readout = minimal effective concentration; param system = U20S-IC6 cells; param query = "CCN(C)S(=O)(=O)OCC(=O)Nc1nc(C)c(Cc2ccc(C)cc2)s1" ; response: value
**A:** 1 to 5 µM

**Q:** Param readout = minimal effective concentration; param system = U20S-IC6 cells; param query = "CNS(=O)(=O)OCC(=O)Nc1nc(C)c(Cc2cccc(Br)c2)s1" ; response: value
**A:** 0.1 to 0.5 µM

**Q:** Param readout = minimal effective concentration; param system = U20S-IC6 cells; param query = "CNS(=O)(=O)OCC(=O)Nc1nc(C)c(Cc2cccc(F)c2)s1" ; response: value
**A:** 0.1 to 0.5 µM
